Target: human PAH with the R408W mutation (A375 R408W cells) (Homo sapiens, UniProt P00439, R408W)
Construct: expressed in transfected cells
Sequence (P00439 1-452 R408W): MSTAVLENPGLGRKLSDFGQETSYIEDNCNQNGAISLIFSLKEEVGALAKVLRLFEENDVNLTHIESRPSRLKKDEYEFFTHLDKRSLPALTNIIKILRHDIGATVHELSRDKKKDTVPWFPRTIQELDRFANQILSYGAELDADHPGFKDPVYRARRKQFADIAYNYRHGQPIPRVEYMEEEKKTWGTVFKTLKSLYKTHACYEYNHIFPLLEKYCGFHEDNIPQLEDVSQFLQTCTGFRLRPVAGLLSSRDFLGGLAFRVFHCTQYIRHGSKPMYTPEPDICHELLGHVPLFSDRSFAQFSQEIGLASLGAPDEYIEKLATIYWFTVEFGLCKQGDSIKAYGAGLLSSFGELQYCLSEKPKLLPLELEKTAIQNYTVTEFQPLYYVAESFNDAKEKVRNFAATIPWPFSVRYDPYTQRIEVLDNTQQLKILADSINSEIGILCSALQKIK
Assay: Cell Based Phenylalanine Flux Assay
Conditions: A375 R408W cells; 24 hrs with compound, then 20 μM sepiapterin and 800 μM 13C9,15N-Phenylalanine for 4 hours; 13C-Tyrosine by LC-MS; average where tested multiple times
Here, each record is paired with measured AC50 data.

compound: O=C(c1nnc(C2CC2)o1)N1CCc2[nH]cnc2[C@@H]1c1nc2cc(F)ccc2o1 [Example 16]
experimental-target: human PAH with the R408W mutation (A375 R408W cells) (Homo sapiens, UniProt P00439, R408W)
AC50: 1 to 5 µM

compound: O=C(c1oc(-c2ccccn2)nc1C(F)F)N1CCc2[nH]cnc2[C@H]1c1nc2cc(F)ccc2o1 [Example 85]
experimental-target: human PAH with the R408W mutation (A375 R408W cells) (Homo sapiens, UniProt P00439, R408W)
AC50: ≤ 0.5 µM

compound: O=C(CCc1nccs1)N1CCc2[nH]cnc2[C@H]1c1nc2ccccc2o1 [Example 913]
experimental-target: human PAH with the R408W mutation (A375 R408W cells) (Homo sapiens, UniProt P00439, R408W)
AC50: 0.5 to 1 µM

compound: O=C(c1ocnc1C(F)F)N1CCc2[nH]cnc2[C@H]1c1nc2c(F)cc(F)cc2o1 [Example 301]
experimental-target: human PAH with the R408W mutation (A375 R408W cells) (Homo sapiens, UniProt P00439, R408W)
AC50: ≤ 0.5 µM

compound: CC1CN(C(=O)c2ocnc2C(F)F)[C@H](c2nc3cccc(F)c3o2)c2nc[nH]c21 (single isomer, unassigned) [Example 803]
experimental-target: human PAH with the R408W mutation (A375 R408W cells) (Homo sapiens, UniProt P00439, R408W)
AC50: ≤ 0.5 µM

compound: COc1cccc2nc([C@H]3c4nc[nH]c4CCN3C(=O)c3ncnn3C)oc12 [Example 776]
experimental-target: human PAH with the R408W mutation (A375 R408W cells) (Homo sapiens, UniProt P00439, R408W)
AC50: 1 to 5 µM

compound: Cc1nc([C@@H](C)O)oc1C(=O)N1CCc2[nH]cnc2[C@@H]1c1nc2cccc(F)c2o1 [Example 218]
experimental-target: human PAH with the R408W mutation (A375 R408W cells) (Homo sapiens, UniProt P00439, R408W)
AC50: 1 to 5 µM

compound: Cc1nn(C)cc1-c1nnc(C(=O)N2CCc3[nH]cnc3[C@@H]2c2nc3cc(F)ccc3o2)o1 [Example 882]
experimental-target: human PAH with the R408W mutation (A375 R408W cells) (Homo sapiens, UniProt P00439, R408W)
AC50: 1 to 5 µM

compound: O=C(c1ccnn1C(F)F)N1CCc2[nH]cnc2[C@H]1c1nc2ccc(F)c(F)c2o1 [Example 513]
experimental-target: human PAH with the R408W mutation (A375 R408W cells) (Homo sapiens, UniProt P00439, R408W)
AC50: 0.5 to 1 µM

compound: Cc1ccc2oc([C@H]3c4nc[nH]c4CCN3C(=O)c3nnc(-c4cn[nH]c4)o3)nc2c1 [Example 492]
experimental-target: human PAH with the R408W mutation (A375 R408W cells) (Homo sapiens, UniProt P00439, R408W)
AC50: 1 to 5 µM

compound: CC(C)(O)c1ncc(C(=O)N2CCc3[nH]cnc3[C@@H]2c2nc3cccc(F)c3o2)o1 [Example 714]
experimental-target: human PAH with the R408W mutation (A375 R408W cells) (Homo sapiens, UniProt P00439, R408W)
AC50: 1 to 5 µM

compound: CC(C)(O)c1nc(Br)c(C(=O)N2CCc3[nH]cnc3[C@@H]2c2nc3c(F)cccc3o2)o1 [Example 251]
experimental-target: human PAH with the R408W mutation (A375 R408W cells) (Homo sapiens, UniProt P00439, R408W)
AC50: 1 to 5 µM

compound: CC(C)(O)C1CCN(c2ccc3c(C(=O)N4CCc5[nH]cnc5[C@H]4c4nc5cccc(F)c5o4)cnn3c2)CC1 [Example 368]
experimental-target: human PAH with the R408W mutation (A375 R408W cells) (Homo sapiens, UniProt P00439, R408W)
AC50: 0.5 to 1 µM

compound: O=C(c1ocnc1C1CC1)N1CCc2[nH]cnc2[C@@H]1c1nc2cc(F)ccc2o1 [Example 42]
experimental-target: human PAH with the R408W mutation (A375 R408W cells) (Homo sapiens, UniProt P00439, R408W)
AC50: 1 to 5 µM

compound: O=C(c1nnc(-c2cc(C(F)(F)F)ccn2)o1)N1CCc2[nH]cnc2[C@H]1c1nc2cc(F)ccc2o1 [Example 122]
experimental-target: human PAH with the R408W mutation (A375 R408W cells) (Homo sapiens, UniProt P00439, R408W)
AC50: ≤ 0.5 µM

compound: O=C(c1ocnc1C(F)(F)F)N1CCc2[nH]cnc2[C@H]1c1nc2ccccc2o1 [Example 797]
experimental-target: human PAH with the R408W mutation (A375 R408W cells) (Homo sapiens, UniProt P00439, R408W)
AC50: ≤ 0.5 µM

compound: Cc1cccc2nc([C@H]3c4nc[nH]c4CCN3C(=O)c3oc(C(C)(C)O)nc3C(F)F)oc12 [Example 391]
experimental-target: human PAH with the R408W mutation (A375 R408W cells) (Homo sapiens, UniProt P00439, R408W)
AC50: 1 to 5 µM

compound: CC(C)n1nccc1C(=O)N1CCc2[nH]cnc2[C@@H]1c1nc2ccccc2o1 [Example 751]
experimental-target: human PAH with the R408W mutation (A375 R408W cells) (Homo sapiens, UniProt P00439, R408W)
AC50: 1 to 5 µM

compound: COc1ccc2c(C(=O)N3CCc4[nH]cnc4[C@H]3c3nc4c(F)cccc4o3)cnn2c1 [Example 539]
experimental-target: human PAH with the R408W mutation (A375 R408W cells) (Homo sapiens, UniProt P00439, R408W)
AC50: ≤ 0.5 µM

compound: O=C(c1cnn2cc(Br)ccc12)N1CCc2[nH]cnc2[C@@H]1c1nc2cc(F)ccc2o1 [Example 70]
experimental-target: human PAH with the R408W mutation (A375 R408W cells) (Homo sapiens, UniProt P00439, R408W)
AC50: 1 to 5 µM

compound: Cn1ccc(-c2nnc(C(=O)N3CCc4[nH]cnc4[C@H]3c3nc4c(F)cccc4o3)o2)n1 [Example 379]
experimental-target: human PAH with the R408W mutation (A375 R408W cells) (Homo sapiens, UniProt P00439, R408W)
AC50: ≤ 0.5 µM

compound: Cc1ccc2nc([C@@H]3c4nc[nH]c4CCN3C(=O)c3oc(C(C)(C)O)nc3C(F)F)oc2c1 [Example 315]
experimental-target: human PAH with the R408W mutation (A375 R408W cells) (Homo sapiens, UniProt P00439, R408W)
AC50: ≤ 0.5 µM

compound: O=C(c1oc(-c2cnccn2)nc1C(F)F)N1CCc2[nH]cnc2[C@@H]1c1nc2cccc(F)c2o1 [Example 694]
experimental-target: human PAH with the R408W mutation (A375 R408W cells) (Homo sapiens, UniProt P00439, R408W)
AC50: ≤ 0.5 µM

compound: O=C(c1oc(C2CC2)nc1C(F)F)N1CCc2[nH]cnc2[C@H]1c1nc2cc(F)ccc2o1 [Example 53]
experimental-target: human PAH with the R408W mutation (A375 R408W cells) (Homo sapiens, UniProt P00439, R408W)
AC50: ≤ 0.5 µM

compound: Cc1ncoc1C(=O)N1CCc2[nH]cnc2[C@@H]1c1nc2cccc(F)c2o1 [Example 570]
experimental-target: human PAH with the R408W mutation (A375 R408W cells) (Homo sapiens, UniProt P00439, R408W)
AC50: 1 to 5 µM

compound: CN(C)Cc1cn2ncc(C(=O)N3CCc4[nH]cnc4[C@@H]3c3nc4cc(F)ccc4o3)c2cc1Cl [Example 204]
experimental-target: human PAH with the R408W mutation (A375 R408W cells) (Homo sapiens, UniProt P00439, R408W)
AC50: 1 to 5 µM

compound: O=C(c1ccnn1C(F)(F)F)N1CCc2[nH]cnc2[C@@H]1c1nc2cccc(F)c2o1 [Example 290]
experimental-target: human PAH with the R408W mutation (A375 R408W cells) (Homo sapiens, UniProt P00439, R408W)
AC50: 1 to 5 µM

compound: COc1ccc(-c2nnc(C(=O)N3CCc4[nH]cnc4[C@@H]3c3nc4cc(F)ccc4o3)o2)nc1 [Example 441]
experimental-target: human PAH with the R408W mutation (A375 R408W cells) (Homo sapiens, UniProt P00439, R408W)
AC50: 1 to 5 µM

compound: COCc1nc(C(F)F)c(C(=O)N2CCc3[nH]cnc3[C@H]2c2nc3cc(F)ccc3o2)o1 [Example 110]
experimental-target: human PAH with the R408W mutation (A375 R408W cells) (Homo sapiens, UniProt P00439, R408W)
AC50: 0.5 to 1 µM

compound: COc1cccc2oc([C@H]3c4nc[nH]c4CCN3C(=O)c3nnc(-c4ccn(C)n4)o3)nc12 [Example 640]
experimental-target: human PAH with the R408W mutation (A375 R408W cells) (Homo sapiens, UniProt P00439, R408W)
AC50: 1 to 5 µM

compound: COc1cc(F)c2oc([C@@H]3c4nc[nH]c4CCN3C(=O)c3oc(C(C)(C)O)nc3C(F)F)nc2c1 [Example 643]
experimental-target: human PAH with the R408W mutation (A375 R408W cells) (Homo sapiens, UniProt P00439, R408W)
AC50: ≤ 0.5 µM
